As shown below, each of these substances has a reported pKd value.
molecular target: GII.3 VLP; assay: Calculation of KD value by bio-layer interferometry (BLI method); type: binding, norovirus; conditions: BLItz, biotinylated peptide 100 μM on SA chip; GII.3 VLP 1 and 0.1 mg/mL; calculated from ka and kd
Scale explanation: pKd corresponds to minus log10 of a concentration expressed in moles per litre.

Recorded results for 2 substances are shown here.
1. GRRYYI [SEQ ID NO: 1] = 5.22
2. VMMQCP [SEQ ID NO: 28] = 3.66

// moving on: another record for pKd
// recorded pKd for GKFFCH [SEQ ID NO: 21] : 3.97
